Where these numbers come from: ChEMBL document CHEMBL3044807

# maps each entry to its Activity
Tested on: Cucumis sativus
Assay: Phytotoxic activity against Cucumis sativus (cucumber) seedlings assessed as radicle length at 5x10'-4 mol/l at 28 +/-1 degC after 48 hr by acid-washed sand based radicle elongation assay (reference value: 4.8 cm)
Type: functional

compound	assayed_target	units	Activity
CC[C@@H]1C(=O)[C@@H](CC)[C@@]23CC(C)CCC2=C(C)[C@H]1O3 (stereo partly specified)	Cucumis sativus	cm	1.8
CC[C@@]12C=C[C@H](O1)[C@H]1CCCC[C@H]2C1=O	Cucumis sativus	cm	1.3
CC1CCC23OOC(C)(O2)C2OC3(C1)C(C)C(=O)C2C (mixture of isomers)	Cucumis sativus	cm	2.9
CC12OOC(O1)C1OC2(C)C2CCCCC1C2=O (mixture of isomers)	Cucumis sativus	cm	0.8
CC(=O)[C@@]12C=C[C@H](O1)[C@H]1CCCC[C@H]2C1=O	Cucumis sativus	cm	0.9
CC1=C2CCC(C)C[C@@]23O[C@H]1[C@H](C)C(=O)[C@H]3C (stereo partly specified)	Cucumis sativus	cm	1.3
C[C@@]12C=C[C@H](O1)[C@H]1CCCC[C@H]2C1=O	Cucumis sativus	cm	1.2
CC12OC(C)(C3OOC1O3)C1CCCCC2C1=O (mixture of isomers)	Cucumis sativus	cm	1.5
CC1=C[C@@H]2O[C@]1(C)[C@H]1CCCC[C@H]2C1=O	Cucumis sativus	cm	0.9
O=C1C2CCCCC1C1OC2C2OOC1O2	Cucumis sativus	cm	1.5
C[C@@]12C=C[C@](C)(O1)[C@H]1CCCC[C@H]2C1=O	Cucumis sativus	cm	1.4

====

// values below are reported inhibition at 500 µM
System: Cucumis sativus
Test: Phytotoxic activity against Cucumis sativus (cucumber) assessed as aerial part growth inhibition at 5.0 x 10^-4 mol/l measured 15 days after seed sowing under greenhouse trials (reference value: 0.0%)
Assay type: functional
Conditions: 360 h
measured_endpoint: inhibition at 500 µM (%)

molecule	experimental_value
CC[C@@H]1C(=O)[C@@H](CC)[C@@]23CC(C)CCC2=C(C)[C@H]1O3 (stereo not given in full)	34.6
CC(=O)[C@@]12C=C[C@H](O1)[C@H]1CCCC[C@H]2C1=O	57.4
C[C@@]12C=C[C@](C)(O1)[C@H]1CCCC[C@H]2C1=O	15.6
CC[C@@]12C=C[C@H](O1)[C@H]1CCCC[C@H]2C1=O	69.2
CCC12OC(C3OOC1O3)C1CCCCC2C1=O (mixture of isomers)	48
O=C1[C@@H]2CCCC[C@@H]1[C@@H]1C=C[C@@H]2O1	30.4
CC1CCC23OOC(C)(O2)C2OC3(C1)C(C)C(=O)C2C (mixture of isomers)	36.9
CC1=C2CCC(C)C[C@@]23O[C@H]1[C@H](C)C(=O)[C@H]3C (stereo not given in full)	5.9
C[C@@]12C=C[C@H](O1)[C@H]1CCCC[C@H]2C1=O	44.6
CCC1C(=O)C(CC)C23CC(C)CCC24OOC(C)(O4)C1O3 (mixture of isomers)	36
CC12OC(C)(C3OOC1O3)C1CCCCC2C1=O (mixture of isomers)	43.8
CC12OC(C3OOC1O3)C1CCCCC2C1=O (mixture of isomers)	63.9
CC12OOC(O1)C1OC2(C)C2CCCCC1C2=O (mixture of isomers)	29.9
O=C1C2CCCCC1C1OC2C2OOC1O2	27.5
CC1=C[C@@H]2O[C@]1(C)[C@H]1CCCC[C@H]2C1=O	65.4
